Target Desc: Glucose transporter (Leishmania mexicana) (UniProt O61059)
Protocol Description: ST_JUDE_LEISH: Cytotoxicity at 2uM final concentration against transgenic Leishmania Mexicana promastigotes LmGT2 that are glucose transport deficient and complemented with the L. Mexicana glucose transporter 2. Activity is measured by DNA content using SYBR green in vitro
Type: functional
Assay Metric: inhibition (%)
Answers are plain numbers, in %.

Molecule: N=C(N)Nc1nc(-c2ccc(NC(=O)Nc3cccc(-c4csc(NC(=N)N)n4)c3)cc2)cs1
Assay Metric: inhibition
Assay Result: -0.17

Give inhibition for each of the items listed below.
1. COc1cc(OCCCN(C)Cc2ccc(OC)c(OC)c2)ccc1NC(=O)c1cccc2c(O)c3cccc(F)c3nc12
2. Oc1cccc(Nc2ccnc3cc(-c4nccs4)ccc23)c1
3. O=C(NC1CCN(c2ccnc(Nc3ccc(F)cc3)n2)C1)c1cc2ccccc2s1 (centres undefined)
4. O=C(NC1CCN(Cc2ccccc2)CC1)c1cc(C(=O)NC2CCN(Cc3ccccc3)CC2)cc(C(=O)NC2CCN(Cc3ccccc3)CC2)c1
5. CN1CCN(CCCN(Cc2csc(-c3ccc(CNCc4ccccc4)cc3)n2)S(=O)(=O)c2ccccc2)CC1
6. Cc1ccc(C(NC(=O)c2ccccc2)c2ccc3cccnc3c2O)cc1 (centres undefined)
7. CCCN(CCC)CCCN(CCCN(CCC)CCC)c1cc(C)nc(Nc2ccc3cc(Br)ccc3c2)n1
8. Cc1ccc(C2(CN3CCC(NC(=O)c4n[nH]cc4Cl)CC3)CCCCC2)cc1

Response:
1. 0.63
2. 16.1
3. 1.27
4. 4.94
5. 4.53
6. -0.04
7. 37.8
8. -0.37

Give inhibition for each of the items listed below.
1. COc1cccc(C2CCN(CCN3CCC(NC(=O)c4ccc(-c5ccc(Cl)cc5)cc4)CC3)CC2)c1
2. NC(=O)c1ccccc1OCC(=O)Nc1cccc(-c2cccc(-c3nc4ccccc4[nH]3)c2)c1
3. Cn1c(=O)c(-c2c(Cl)cccc2Cl)cc2cnc(Nc3ccc(N4CCOCC4)cc3)nc21
4. O=C(Nc1cccc(-c2cccc(-c3nc4ccccc4[nH]3)c2)c1)Nc1ccc2c(c1)OCO2
5. Fc1ccc2[nH]c(-c3cccc(-c4ccc(CNCC5CCCO5)cc4)c3)nc2c1 (centres undefined)

Response:
1. 1.81
2. -4.32
3. 11.6
4. 1.05
5. -1.42

Give inhibition for each of the items listed below.
1. O=[N+]([O-])c1cccc(CNCC2CCN(CC3CCCCC3)CC2)c1
2. Cc1ccc(Nc2nc(C)cc(N3CCN(CCc4ccccc4)CC3)n2)cc1
3. O=C(Nc1ccccc1)N(Cc1cccc(-c2cccc(CNCc3ccc4c(c3)OCO4)c2)c1)C1CCN(Cc2ccccc2)CC1
4. Cn1c(CN2CCC(N3CCc4cc(NC(=O)c5ccco5)ccc43)C2)cc2ccccc21 (centres undefined)

Response:
[2.98, -1.99, 2.79, 5.36]

# inhibition (molecule: CC1(C)N=C(N)N=C(N)N1c1ccccc1 ) is 1.32
